system: biotinyl-Phe-oxazolone; experiment: self-aminoacylation, catalytic enhancement (BFO) (fold over background); higher = more active; k-Seq, kA / k0A0; sequences stand for … in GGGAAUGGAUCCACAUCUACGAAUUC…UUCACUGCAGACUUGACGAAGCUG
Variants at the floor of the assay were thinned out.
experimental.endpoint: self-aminoacylation

Illustrative cases are given below, each with its answer.
Reported self-aminoacylation for biotinyl-Phe-oxazolone, given AUACACCUAGGUCAUCUGGUG [Fam2.2 aminoacylation ribozyme variant] ?
4.68

Also ACUCCCCUAGGUCAUCGGGUG [Fam2.2 aminoacylation ribozyme variant] , if possible.
101

Also CCACACUUCAAGCCAUCUGUC [Fam1B.1 aminoacylation ribozyme variant] , if possible.
0.711

Also AGUACCCUGGUCAUCGAGUGG [Fam2.1 aminoacylation ribozyme variant] , if possible.
6.94

Also AUUCACCUGGGUCAUCGGGUU [Fam2.2 aminoacylation ribozyme variant] , if possible.
17.4

Also AUGACCCUGGUCAUCGAGGGA [Fam2.1 aminoacylation ribozyme variant] , if possible.
2.82

Also AUUACCCUGGCCGUCGAGUGA [Fam2.1 aminoacylation ribozyme variant] , if possible.
2.1

Also AAGUUGGCUAAUAGUUGCAAG [Fam3.1 aminoacylation ribozyme variant] , if possible.
1.86

Also AUCAACCUGGUCAUCGAGUGA [Fam2.1 aminoacylation ribozyme variant] , if possible.
43.5

Also CCACGCUUCAAGCAAUCGGUU [Fam1B.1 aminoacylation ribozyme variant] , if possible.
20

State recorded self-aminoacylation for all listed sequences.
1. AUUACCCUGGCCACCGAGUGA [Fam2.1 aminoacylation ribozyme variant]
2. GUACUUCAAACAAUCGGUCUG [Fam1A.1 aminoacylation ribozyme variant]
3. AAGUUUGCUAAUUGUCGCAGG [Fam3.1 aminoacylation ribozyme variant]
4. CCACACUUGAAGCAAUCGGGC [Fam1B.1 aminoacylation ribozyme variant]
5. CCGCACUUAAAGCAAUCGGUC [Fam1B.1 aminoacylation ribozyme variant]

1: 35.6; 2: 51.3; 3: 2.72; 4: 5.71; 5: 0.932

State recorded self-aminoacylation for all listed sequences.
1. AUUCACCUAGGUCAUCGGUUG [Fam2.2 aminoacylation ribozyme variant]
2. CUACUACAAACAAUCCGUCUG [Fam1A.1 aminoacylation ribozyme variant]
3. AAGUUUGCUAAUAAUGGCAAG [Fam3.1 aminoacylation ribozyme variant]

1. 1.02
2. 0.545
3. 0.786

State recorded self-aminoacylation for all listed sequences.
1. CCACACUUCAAGCAAGCGGAC [Fam1B.1 aminoacylation ribozyme variant]
2. CGACUUCAAAUAAUCGGUCUG [Fam1A.1 aminoacylation ribozyme variant]
3. CUACUUCAAACUAUCGCUCUG [Fam1A.1 aminoacylation ribozyme variant]

1: 0.42; 2: 16.2; 3: 0.781

###

test system: biotinyl-Leu-oxazolone; experiment: self-aminoacylation, catalytic enhancement (BLO) (fold over background); higher = more active; k-Seq, kA / k0A0; sequences stand for … in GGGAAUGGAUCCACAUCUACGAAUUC…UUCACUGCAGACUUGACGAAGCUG
This sample holds only a part of the variants without activity.
Please respond with reported self-aminoacylation for every item in the list.
One number for each entry.

Reported self-aminoacylation for biotinyl-Leu-oxazolone, given AUUCACCUAGGUGAUCGGCUG [Fam2.2 aminoacylation ribozyme variant] ?
1.98

State recorded self-aminoacylation for all listed sequences.
1. CCACAAUUCGAGCAAUCGGUC [Fam1B.1 aminoacylation ribozyme variant]
2. AUUACCCAGGCCAUCGAGUGA [Fam2.1 aminoacylation ribozyme variant]
3. CUACUUGAAACAAACGGUCUG [Fam1A.1 aminoacylation ribozyme variant]
4. AAUACCCGGGUCAUCGAGUGA [Fam2.1 aminoacylation ribozyme variant]

[1.07, 2.69, 0.826, 6.7]

Numbers sourced from the supplement of paper PMC9233669.
